- System: HepG2
- assay.notes: Antiproliferative activity against human HepG2 cells assessed as inhibition of cell proliferation incubated for 48 hrs by MTT assay
- Assay type: functional, cell-based
- run.conditions: HepG2, 48 h
value.type: IC50 (µM)

{"line.notation": "COc1cccc(-n2cc(NC(=O)c3cccc(NS(=O)(=O)c4ccccc4)c3)cn2)c1", "u": "µM", "reported.result": 25}
{"line.notation": "COc1ccc(-n2cc(NC(=O)c3ccc(NS(=O)(=O)c4ccccc4)cc3)cn2)cc1", "u": "µM", "reported.result": 57.3}
{"line.notation": "Cn1cc(NC(=O)c2cccc(NS(=O)(=O)c3ccc(Cl)cc3)c2)cn1", "u": "µM", "reported.result": 82.7}
{"line.notation": "Cc1ccc(-n2cc(NC(=O)c3ccc(NS(=O)(=O)c4ccc(Cl)cc4)cc3)cn2)cc1", "u": "µM", "reported.result": 9.72}
{"line.notation": "Cc1ccc(-n2cc(NC(=O)c3cccc(NS(=O)(=O)c4ccccc4)c3)cn2)cc1", "u": "µM", "reported.result": 6.05}

----------
- test.system: Fibroblast growth factor receptor 1 (Homo sapiens, UniProt P11362)
- Sequence (P11362 whole entry): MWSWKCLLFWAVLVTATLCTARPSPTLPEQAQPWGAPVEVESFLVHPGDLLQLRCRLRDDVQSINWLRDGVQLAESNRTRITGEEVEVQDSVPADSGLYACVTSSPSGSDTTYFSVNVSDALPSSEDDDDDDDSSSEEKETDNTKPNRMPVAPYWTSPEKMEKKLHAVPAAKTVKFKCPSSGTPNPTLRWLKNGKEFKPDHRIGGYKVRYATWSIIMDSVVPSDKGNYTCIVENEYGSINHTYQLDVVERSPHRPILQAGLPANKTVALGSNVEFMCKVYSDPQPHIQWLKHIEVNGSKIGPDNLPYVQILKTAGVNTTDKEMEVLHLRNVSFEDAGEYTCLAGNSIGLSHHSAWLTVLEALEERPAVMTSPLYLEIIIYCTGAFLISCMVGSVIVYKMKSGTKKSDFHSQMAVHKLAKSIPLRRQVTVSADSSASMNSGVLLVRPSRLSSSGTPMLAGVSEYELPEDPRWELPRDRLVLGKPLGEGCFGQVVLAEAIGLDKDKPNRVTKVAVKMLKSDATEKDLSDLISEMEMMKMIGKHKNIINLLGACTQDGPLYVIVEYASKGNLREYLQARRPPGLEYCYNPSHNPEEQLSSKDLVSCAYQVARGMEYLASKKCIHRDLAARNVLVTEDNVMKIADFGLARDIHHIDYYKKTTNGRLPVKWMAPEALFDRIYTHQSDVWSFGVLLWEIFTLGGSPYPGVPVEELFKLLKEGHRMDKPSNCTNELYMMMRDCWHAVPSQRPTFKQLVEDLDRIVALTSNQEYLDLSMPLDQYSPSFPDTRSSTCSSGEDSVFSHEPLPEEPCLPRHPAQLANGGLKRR
Field 'label' (enum: YES / NO). Set to YES when IC50 is strictly under 30 µM; else NO.

{"line.notation": "COc1cccc(-n2cc(NC(=O)c3cccc(NS(=O)(=O)c4ccc(Cl)cc4)c3)cn2)c1", "answer.label": "YES"}
{"line.notation": "COc1ccc(-n2cc(NC(=O)c3cccc(NS(=O)(=O)c4ccc(Cl)cc4)c3)cn2)cc1", "answer.label": "YES"}
{"line.notation": "Cn1cc(NC(=O)c2cccc(NS(=O)(=O)c3ccc(Cl)cc3)c2)cn1", "answer.label": "NO"}
{"line.notation": "Cc1ccc(-n2cc(NC(=O)c3cccc(NS(=O)(=O)c4ccccc4)c3)cn2)cc1", "answer.label": "YES"}
{"line.notation": "O=C(Nc1cnn(-c2ccccc2)c1)c1ccc(NS(=O)(=O)c2ccccc2)cc1", "answer.label": "NO"}
{"line.notation": "O=C(Nc1cnn(-c2ccccc2)c1)c1cccc(NS(=O)(=O)c2ccc(Cl)cc2)c1", "answer.label": "YES"}
{"line.notation": "Cc1ccc(-n2cc(NC(=O)c3ccc(NS(=O)(=O)c4ccccc4)cc3)cn2)cc1", "answer.label": "YES"}
{"line.notation": "COc1cccc(-n2cc(NC(=O)c3ccc(NS(=O)(=O)c4ccccc4)cc3)cn2)c1", "answer.label": "NO"}
{"line.notation": "Cc1ccc(-n2cc(NC(=O)c3ccc(NS(=O)(=O)c4ccc(Cl)cc4)cc3)cn2)cc1", "answer.label": "YES"}

----------
- assay.notes: Inhibition of PDGFR (unknown origin) incubated for 30 mins by enzyme immunoassay
- Set-up: species or system Homo sapiens
pIC50: −log10 of the molar value.
Entries and their pIC50

{"compound": "COc1cccc(-n2cc(NC(=O)c3ccc(NS(=O)(=O)c4ccccc4)cc3)cn2)c1", "pIC50": 4.40}
{"compound": "Cc1ccc(-n2cc(NC(=O)c3ccc(NS(=O)(=O)c4ccc(Cl)cc4)cc3)cn2)cc1", "pIC50": 4.80}
{"compound": "O=C(Nc1cnn(-c2ccccc2)c1)c1ccc(NS(=O)(=O)c2ccccc2)cc1", "pIC50": 4.46}
{"compound": "Cn1cc(NC(=O)c2cccc(NS(=O)(=O)c3ccccc3)c2)cn1", "pIC50": 4.38}
{"compound": "COc1cc2/c(=N/c3ccc(Br)cc3F)nc[nH]c2cc1OCC1CCN(C)CC1 [VANDETANIB]", "pIC50": 5.88}
{"compound": "Cc1ccc(-n2cc(NC(=O)c3cccc(NS(=O)(=O)c4ccccc4)c3)cn2)cc1", "pIC50": 4.80}
{"compound": "COc1cccc(-n2cc(NC(=O)c3cccc(NS(=O)(=O)c4ccccc4)c3)cn2)c1", "pIC50": 4.56}
{"compound": "O=C(Nc1cnn(-c2ccccc2)c1)c1cccc(NS(=O)(=O)c2ccccc2)c1", "pIC50": 4.73}
{"compound": "O=C(Nc1cnn(-c2ccccc2)c1)c1cccc(NS(=O)(=O)c2ccc(Cl)cc2)c1", "pIC50": 4.75}
{"compound": "COc1ccc(-n2cc(NC(=O)c3cccc(NS(=O)(=O)c4ccccc4)c3)cn2)cc1", "pIC50": 4.42}
{"compound": "COc1ccc(-n2cc(NC(=O)c3ccc(NS(=O)(=O)c4ccc(Cl)cc4)cc3)cn2)cc1", "pIC50": 4.58}
{"compound": "Cn1cc(NC(=O)c2cccc(NS(=O)(=O)c3ccc(Cl)cc3)c2)cn1", "pIC50": 4.40}
{"compound": "Cn1cc(NC(=O)c2ccc(NS(=O)(=O)c3ccccc3)cc2)cn1", "pIC50": 4.37}
{"compound": "COc1ccc(-n2cc(NC(=O)c3ccc(NS(=O)(=O)c4ccccc4)cc3)cn2)cc1", "pIC50": 4.43}
